- assay.system: T1, human MSLN-R2-his protein (human, UniProt Q13421 391-486)
- T1 construct: it is put last here; also called human MSLN-R2 protein; hMSLN-R2-his; not shown: His tag
- T1 sequence (Q13421 other isoform, or with tags, fused parts or gaps): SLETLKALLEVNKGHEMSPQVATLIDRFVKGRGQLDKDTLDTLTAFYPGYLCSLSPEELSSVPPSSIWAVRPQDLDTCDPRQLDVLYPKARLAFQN
- assay.details: ELISA on coated antigen, antibody 0.0002 nM
readout: OD450
Please report the result as a number followed by the unit.

binder="Tab106 (YP218, hIgG1) (antibody, V domains shown, Control antibody; YP218 VH and VL recombined into human IgG1 CH and CL expression vectors; also called YP218 human IgG1 antibody) VH: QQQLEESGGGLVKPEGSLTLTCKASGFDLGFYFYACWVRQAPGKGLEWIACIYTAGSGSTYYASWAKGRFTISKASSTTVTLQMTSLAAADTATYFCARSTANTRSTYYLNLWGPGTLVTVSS VL: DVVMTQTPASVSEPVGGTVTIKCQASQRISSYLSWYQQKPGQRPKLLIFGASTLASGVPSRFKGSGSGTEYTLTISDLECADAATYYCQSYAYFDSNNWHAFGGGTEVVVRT" result="0.12 OD"
binder="S009-F7.67.12 (antibody, human IgG1, kappa, V domains shown, Human-murine chimeric antibody, human IgG1 heavy and kappa light constant regions) VH: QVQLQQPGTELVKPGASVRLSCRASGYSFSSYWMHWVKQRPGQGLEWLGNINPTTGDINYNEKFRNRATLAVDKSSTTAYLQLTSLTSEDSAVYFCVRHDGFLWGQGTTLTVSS VL: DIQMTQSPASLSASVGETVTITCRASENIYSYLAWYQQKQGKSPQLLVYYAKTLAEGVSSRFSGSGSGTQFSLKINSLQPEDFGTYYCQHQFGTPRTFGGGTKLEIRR" result="0.05 OD"

Request: Query (binder): S009-F7.6.17 (antibody, human IgG1, kappa, V domains shown, Human-murine chimeric antibody, human IgG1 heavy and kappa light constant regions) VH: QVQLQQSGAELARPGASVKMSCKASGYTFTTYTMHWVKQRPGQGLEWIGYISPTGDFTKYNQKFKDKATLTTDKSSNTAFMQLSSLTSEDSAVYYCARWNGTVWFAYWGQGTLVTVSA VL: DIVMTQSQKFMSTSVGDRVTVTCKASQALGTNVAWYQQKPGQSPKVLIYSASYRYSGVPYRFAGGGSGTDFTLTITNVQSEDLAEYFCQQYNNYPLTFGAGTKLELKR ; field requested: OD450
Response: 0.05 OD
